Target: T1, human factor Xa (human, UniProt P00742 41-179; P00742 235-488)
T1 chain 1: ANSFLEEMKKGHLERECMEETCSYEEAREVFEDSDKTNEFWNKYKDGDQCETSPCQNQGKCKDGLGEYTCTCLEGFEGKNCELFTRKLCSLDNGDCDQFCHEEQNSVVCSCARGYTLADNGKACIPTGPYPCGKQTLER
T1 chain 2: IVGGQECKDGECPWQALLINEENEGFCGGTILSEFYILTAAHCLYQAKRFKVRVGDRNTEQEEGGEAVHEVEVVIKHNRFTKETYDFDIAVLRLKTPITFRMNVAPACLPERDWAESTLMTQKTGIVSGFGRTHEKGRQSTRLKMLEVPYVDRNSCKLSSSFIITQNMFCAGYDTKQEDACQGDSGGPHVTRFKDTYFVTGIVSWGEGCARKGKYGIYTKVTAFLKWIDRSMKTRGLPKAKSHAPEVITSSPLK
Assay: enzyme inhibition
We begin with a simple list: items and their reported Ki.
READOUT_TYPE: Ki (µM)

INSERT INTO results (binder, readout_type, endpoint_value) VALUES
  ('TW6169 (protein) EVVREVCSEQAETGPCRALILRWYFDVTEGKCAPFFYGGCGGNRNNFDTEEYCMAVCGSAI', 'Ki', 0.111),
  ('TW6190 (protein) EVVREVCSEQAETGPCRAAISRWYFDVTEGKCAPFFYGGCYGNRNNFDTEEYCMAVCGSAI', 'Ki', 1.4),
  ('TW6175 (protein) EVVREVCSEQAETGPCRALIFRWYFDVTEGKCAPFFYGGCGGNRNNFDTEEYCMAVCGSAI', 'Ki', 0.056),
  ('TW6184 (protein) EVVREVCSEQAETGPCRAMHYRWYFDVTEGKCAPFFYGGCGGNRNNFDTEEYCMAVCGSAI', 'Ki', 0.214),
  ('TW6205 (protein) EVVREVCSEQAETGPCRALISAWYFDVTEGKCAPFFYGGCGGNRNNFDTEEYCMAVCGSAI', 'Ki', 0.029),
  ('TW6183 (protein) EVVREVCSEQAETGPCRAMHFRWYFDVTEGKCAPFFYGGCGGNRNNFDTEEYCMAVCGSAI', 'Ki', 0.159),
  ('TW6204 (protein) EVVREVCSEQAETGPCRAAISAWYFDVTEGKCAPFFYGGCGGNRNNFDTEEYCMAVCGSAI', 'Ki', 0.087),
  ('DD113 (protein) EVVREVCSEQAETGPCRALIPRWYFDVTEGKCAPFFYGGCGGNRNNFDTEEYCMAVCGSAI', 'Ki', 0.074);

Origin of measurements: patent US6906033
